- Tested system: hT1R2/hT1R3 sweet receptor expressed in HEK293 cell line (Homo sapiens, UniProt Q7RTX0+Q8TE23)
- Construct: expressed in transfected cells; host or cells: HEK293 derivative stably expressing Gα15 and hT1R2/hT1R3, clone S-9
- Sequence (Q8TE23 20-839): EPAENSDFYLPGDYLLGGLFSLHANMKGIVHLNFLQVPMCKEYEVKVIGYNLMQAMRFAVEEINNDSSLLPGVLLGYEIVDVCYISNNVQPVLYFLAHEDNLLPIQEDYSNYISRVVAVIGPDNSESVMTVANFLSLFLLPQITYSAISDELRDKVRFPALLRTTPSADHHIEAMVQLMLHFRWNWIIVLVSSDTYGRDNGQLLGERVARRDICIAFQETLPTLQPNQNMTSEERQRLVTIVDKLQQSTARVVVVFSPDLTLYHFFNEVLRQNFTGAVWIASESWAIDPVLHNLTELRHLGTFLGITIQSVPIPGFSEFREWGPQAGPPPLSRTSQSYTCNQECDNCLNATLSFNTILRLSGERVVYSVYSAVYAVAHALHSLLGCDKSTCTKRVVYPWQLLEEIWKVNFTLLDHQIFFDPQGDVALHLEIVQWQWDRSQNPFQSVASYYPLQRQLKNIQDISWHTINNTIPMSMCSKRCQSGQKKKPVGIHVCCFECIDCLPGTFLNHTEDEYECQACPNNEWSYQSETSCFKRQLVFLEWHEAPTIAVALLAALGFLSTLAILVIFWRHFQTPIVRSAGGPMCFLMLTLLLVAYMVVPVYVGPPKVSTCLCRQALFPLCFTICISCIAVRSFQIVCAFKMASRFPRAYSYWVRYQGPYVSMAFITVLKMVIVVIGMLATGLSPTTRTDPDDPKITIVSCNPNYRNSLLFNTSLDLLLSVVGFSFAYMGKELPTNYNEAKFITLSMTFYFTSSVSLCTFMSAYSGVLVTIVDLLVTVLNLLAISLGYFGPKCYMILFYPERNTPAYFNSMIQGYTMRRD
- Sequence (Q7RTX0 21-852): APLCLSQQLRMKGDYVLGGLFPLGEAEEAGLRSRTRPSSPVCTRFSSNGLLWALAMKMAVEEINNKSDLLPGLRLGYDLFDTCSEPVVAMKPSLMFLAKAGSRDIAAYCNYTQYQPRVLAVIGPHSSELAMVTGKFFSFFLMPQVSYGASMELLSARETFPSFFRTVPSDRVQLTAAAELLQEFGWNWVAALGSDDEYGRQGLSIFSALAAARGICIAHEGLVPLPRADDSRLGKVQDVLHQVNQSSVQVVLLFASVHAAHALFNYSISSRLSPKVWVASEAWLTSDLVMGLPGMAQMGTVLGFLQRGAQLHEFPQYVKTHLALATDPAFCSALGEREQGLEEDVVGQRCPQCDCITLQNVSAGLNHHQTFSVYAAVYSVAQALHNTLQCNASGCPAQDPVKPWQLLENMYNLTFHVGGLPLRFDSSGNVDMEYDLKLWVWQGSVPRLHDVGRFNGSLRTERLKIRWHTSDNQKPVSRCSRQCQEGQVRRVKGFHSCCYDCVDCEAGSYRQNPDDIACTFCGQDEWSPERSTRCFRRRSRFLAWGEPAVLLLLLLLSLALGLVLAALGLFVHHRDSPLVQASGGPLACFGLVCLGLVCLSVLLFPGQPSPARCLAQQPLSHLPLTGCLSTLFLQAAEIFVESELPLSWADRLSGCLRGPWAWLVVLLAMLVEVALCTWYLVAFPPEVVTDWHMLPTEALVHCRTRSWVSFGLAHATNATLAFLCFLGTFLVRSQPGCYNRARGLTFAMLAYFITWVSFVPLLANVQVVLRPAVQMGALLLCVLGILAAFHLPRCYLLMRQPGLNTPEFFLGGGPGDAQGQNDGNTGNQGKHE
- Protocol: In vitro hT1R2/hT1R3-HEK293 taste receptor activation assay (FLIPR)
- Format: cell-based
- Details: Table A; read-out: SWEET EC50
- Source text: An HEK293 cell line derivative (Chandrashekar et al., Cell (2000) 100:703-711) that stably expresses Gα15 and hT1R2/hT1R3 (Li et al., Proc Natl Acad Sci USA (2002) 99:4692-4696), see also PCT Publication No. WO 03/001876 A2) was used to identify compounds with sweet taste enhancing properties. Compounds covered in this document were initially selected based on their activity on the hT1R2/hT1R3-HEK293-Gα15 cell line (Li et al. vide supra). […]
# pEC50 per entry
When answering, recall that pEC50 equals minus log10 of the concentration in mol/L, and write that number alone.

CC[C@@H](C)NC(=O)C(C)(C)c1ccc(-c2cncc(C#N)c2)cc1 [Compound A85] : 6.82
CC(C)CNC(=O)C(C)(C)c1ccc(-c2ccccc2)c(O)c1 [Compound A67] : 5.85

If you can, please state the reported pEC50 value of CC(C)CNC(=O)C(C)(C)c1ccc(-c2cncc(OC(C)C)c2)cc1 [Compound A87] . 6.68

Next entry: CC(C)CNC(=O)C(C)(C)c1ccc(-c2ccncc2)cc1 [Compound A9] 5.78

Next entry: CC(C)(C(=O)NC1CCC1)c1ccc(-c2cncc(C#N)c2)cc1 [Compound A51] 6.39

Next entry: CC(C)(C(=O)CCc1ccco1)c1ccc(-c2cncc(C#N)c2)cc1 [Compound A72] 6.74

Next entry: CC[C@H](C)CNC(=O)C(C)(C)c1ccc(-c2cncc(C#N)n2)cc1 [Compound A82] 7.52

Next entry: COc1ccc(-c2ccc(C(C)(C)C(=O)NCC(C)C)cc2)c(OC)c1 [Compound A19] 5.15

Next entry: CC(C)CNC(=O)C(C)(C)c1ccc(-c2ccccc2)cc1 [Compound A36] 5.89

---

- Tested system: hT1R2/hT1R3 sweet receptor expressed in HEK293 cell line (Homo sapiens, UniProt Q7RTX0+Q8TE23)
- Construct: expressed in transfected cells; host or cells: HEK293 derivative stably expressing Gα15 and hT1R2/hT1R3, clone S-9
- Protocol: In vitro hT1R2/hT1R3-HEK293 taste receptor activation assay (FLIPR)
- Type: cell-based
- Details: Table A; read-out: SWEET EC50
pEC50: −log10 of the molar value.
Decide by pEC50: equal to or exceeding 6 means 1.0, less means 0.0.

CCc1ccccc1-c1ccc(C(C)(C)C(=O)NCC(C)C)cc1 : 0.0
COCC(C)NC(=O)C(C)(C)c1ccc(-c2ccccc2)c(F)c1 (centres unmarked) : 0.0
CC(C)(C(=O)NC1CCCCC1)c1ccc(-c2cncc(C#N)c2)cc1 : 1.0

Then this compound:
Given `CC(C)(C(=O)N[C@@H](O)c1ccccc1)c1ccc(-c2cncc(C#N)c2)cc1` , state whether its pEC50 is at least 6. 0.0

---

- Tested system: hT1R2/hT1R3 sweet receptor expressed in HEK293 cell line (Homo sapiens, UniProt Q7RTX0+Q8TE23)
- Construct: expressed in transfected cells; host or cells: HEK293 derivative stably expressing Gα15 and hT1R2/hT1R3, clone S-9
- Protocol: In vitro hT1R2/hT1R3-HEK293 taste receptor activation assay (FLIPR)
- Format: cell-based
- Details: Table A; read-out: SWEET EC50
So basically: is EC50 under 2000 nM? Then satisfied. Not under? Then not satisfied.

CCCNC(=O)C(C)(C)c1ccc(-c2cncc(COC)c2)cc1 : not satisfied
CC[C@H](C)NC(=O)C(C)(C)c1ccc(-c2cncc(COC)c2)cc1 : satisfied
CCC(COC)NC(=O)C(C)(C)c1ccc(-c2cncc(C#N)c2)cc1 (stereo not drawn) : satisfied
CC(C)CNC(=O)C(C)(C)c1ccc(-c2cccc(C=O)c2)cc1 : satisfied
CC(C)CNC(=O)C(C)(C)c1ccc(-c2cncnc2)cc1 : not satisfied

Strictly below 2000 nM: is that where EC50 of `CCCOc1cccc(-c2ccc(C(C)(C)C(=O)NCC(C)C)cc2)c1` sits? not satisfied

Next entry: CCC(C)NC(=O)[C@@H](C)c1ccc(-c2ccccc2)c(F)c1 (stereo partly drawn) not satisfied

Next entry: CCC(C)CNC(=O)C(C)(C)c1ccc(-c2cncc(C#N)n2)cc1 (stereo not drawn) satisfied

Next entry: CCC(C(=O)NCC(C)C)c1ccc(-c2ccccc2)cc1 (stereo not drawn) satisfied
